The entries below come with measured Activity values attached.
Test system: Radical scavenging activity
Assay: Antioxidant activity assessed as DPPH free radical scavenging activity by measuring reduction in DPPH absorbance by ELISA relative to untreated control
Assay type: functional
Set-up: concentration or dose not given beside the values
Please state the figure in %; there is no need to write the unit.

Recorded results for 2 molecules are shown here.
[
  {
    "smi": "CC(=O)c1ccc(N/N=C2\\CCCc3ccccc3C2=O)cc1",
    "Activity, %": 81
  },
  {
    "smi": "O=C1O[C@H]([C@@H](O)CO)C(O)=C1O",
    "Activity, %": 79
  }
]

Next item in the queue.
Give the reported value of Activity for this record: O=C1/C(=N/Nc2ccc([N+](=O)[O-])cc2)CCCc2ccccc21
82
